# Target entity: human α1H T-type channels (Homo sapiens)
# Sequence (O95180 whole entry): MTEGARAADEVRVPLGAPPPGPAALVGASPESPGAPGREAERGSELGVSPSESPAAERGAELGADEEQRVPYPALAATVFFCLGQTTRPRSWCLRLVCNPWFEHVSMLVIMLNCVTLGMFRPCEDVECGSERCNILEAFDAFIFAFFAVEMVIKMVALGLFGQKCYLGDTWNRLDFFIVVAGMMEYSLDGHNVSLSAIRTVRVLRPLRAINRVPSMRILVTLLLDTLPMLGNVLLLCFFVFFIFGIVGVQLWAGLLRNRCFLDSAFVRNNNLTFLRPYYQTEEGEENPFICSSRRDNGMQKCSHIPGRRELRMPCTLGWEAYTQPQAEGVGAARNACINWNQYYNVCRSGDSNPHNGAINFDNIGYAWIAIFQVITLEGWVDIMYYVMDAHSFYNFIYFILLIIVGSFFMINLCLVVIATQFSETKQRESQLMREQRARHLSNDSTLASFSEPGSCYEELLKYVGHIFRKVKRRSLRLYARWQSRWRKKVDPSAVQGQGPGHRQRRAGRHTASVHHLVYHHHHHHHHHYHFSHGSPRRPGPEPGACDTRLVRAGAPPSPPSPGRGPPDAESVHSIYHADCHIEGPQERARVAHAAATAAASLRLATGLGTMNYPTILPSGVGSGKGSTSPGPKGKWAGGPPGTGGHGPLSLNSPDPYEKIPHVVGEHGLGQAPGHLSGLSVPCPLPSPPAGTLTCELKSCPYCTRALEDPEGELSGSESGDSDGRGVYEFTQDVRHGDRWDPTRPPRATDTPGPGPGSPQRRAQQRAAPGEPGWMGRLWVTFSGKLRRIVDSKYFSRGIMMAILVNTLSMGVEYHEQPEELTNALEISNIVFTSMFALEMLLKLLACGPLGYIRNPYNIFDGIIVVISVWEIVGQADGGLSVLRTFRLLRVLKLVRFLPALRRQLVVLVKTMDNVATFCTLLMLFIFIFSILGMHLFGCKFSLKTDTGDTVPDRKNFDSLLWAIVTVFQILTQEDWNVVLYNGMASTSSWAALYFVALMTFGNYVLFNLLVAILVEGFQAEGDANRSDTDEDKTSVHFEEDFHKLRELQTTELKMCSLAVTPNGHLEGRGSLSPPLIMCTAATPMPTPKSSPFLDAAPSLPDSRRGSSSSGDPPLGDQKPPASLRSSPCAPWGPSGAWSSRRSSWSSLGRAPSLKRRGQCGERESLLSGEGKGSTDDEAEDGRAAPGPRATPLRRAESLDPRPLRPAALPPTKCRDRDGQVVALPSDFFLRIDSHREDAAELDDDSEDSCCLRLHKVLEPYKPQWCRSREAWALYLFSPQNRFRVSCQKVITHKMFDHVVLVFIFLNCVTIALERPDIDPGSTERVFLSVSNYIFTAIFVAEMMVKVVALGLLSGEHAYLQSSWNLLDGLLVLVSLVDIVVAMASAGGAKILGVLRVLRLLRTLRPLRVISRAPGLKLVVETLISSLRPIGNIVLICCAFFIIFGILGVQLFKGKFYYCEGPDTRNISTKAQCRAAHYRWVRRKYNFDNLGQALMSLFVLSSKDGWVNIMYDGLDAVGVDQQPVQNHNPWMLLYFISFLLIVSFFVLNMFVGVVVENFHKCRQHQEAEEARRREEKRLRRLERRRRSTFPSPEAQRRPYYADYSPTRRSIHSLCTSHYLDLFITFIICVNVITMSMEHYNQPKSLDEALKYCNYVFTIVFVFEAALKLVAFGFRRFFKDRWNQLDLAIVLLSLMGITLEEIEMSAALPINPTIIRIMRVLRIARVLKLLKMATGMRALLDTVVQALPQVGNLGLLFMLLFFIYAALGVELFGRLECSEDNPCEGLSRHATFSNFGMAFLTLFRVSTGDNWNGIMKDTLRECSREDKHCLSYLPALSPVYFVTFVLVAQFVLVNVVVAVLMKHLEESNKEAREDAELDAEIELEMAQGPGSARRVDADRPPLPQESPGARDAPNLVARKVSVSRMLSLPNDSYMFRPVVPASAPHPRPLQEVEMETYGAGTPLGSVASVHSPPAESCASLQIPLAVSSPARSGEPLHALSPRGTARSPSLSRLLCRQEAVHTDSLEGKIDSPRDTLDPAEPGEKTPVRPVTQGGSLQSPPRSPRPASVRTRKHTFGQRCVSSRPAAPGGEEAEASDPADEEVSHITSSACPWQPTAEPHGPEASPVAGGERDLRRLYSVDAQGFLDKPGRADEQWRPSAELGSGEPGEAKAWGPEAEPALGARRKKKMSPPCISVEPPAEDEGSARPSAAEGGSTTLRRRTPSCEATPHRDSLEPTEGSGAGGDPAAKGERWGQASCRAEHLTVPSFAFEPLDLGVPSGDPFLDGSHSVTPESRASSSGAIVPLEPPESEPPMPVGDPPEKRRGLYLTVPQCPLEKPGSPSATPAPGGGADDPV
# Method summary: T-type calcium channel block, whole cell patch clamp (α1H)
# Settings: HEK cells stably expressing human α1H; mainly non-inactivated protocol; values above 10 μM represented as 10 μM
Observation type: IC50 (nM)

Worked cases, IC50 given:
O=C(CN[C@H]1CC[C@@H](CNC(=O)c2cc(C(F)(F)F)cc(C(F)(F)F)c2)CC1)NCC(F)(F)F [Compound 43]
450
CC(C)(C)NC(=O)CN[C@H]1CC[C@H](CNC(=O)c2cc(F)cc(Cl)c2)CC1 [Compound 201]
570
COc1ccccc1CN[C@H]1CC[C@H](CNC(=O)c2cc(C(F)(F)F)cc(C(F)(F)F)c2)CC1 [Compound 29]
800
CC(C)NC(=O)CN[C@H]1CC[C@H](CNC(=O)c2cc(C(F)(F)F)cc(C(F)(F)F)c2)CC1 [Compound 74]
650

(a) Cc1ccc(NC(=O)CN[C@H]2CC[C@@H](CNC(=O)c3cc(C(F)(F)F)cc(C(F)(F)F)c3)CC2)nc1 [Compound 73]
(b) CN(C(=O)CN[C@H]1CC[C@@H](CNC(=O)c2cc(F)cc(Cl)c2)CC1)C(C)(C)C [Compound 196]
QUERY: Which is greater in IC50, the first item a or the second item b ? Respond using the label that marks the chosen record.
RESULT: a
